tested on: CAOV3; experiment: Primary qHTS to identify gynecologic anti-cancer compounds using libraries of approved drugs and bioactive compounds (AID 1345084); details: Gynecologic cancer cell panel viability, ATPlite luminescence, 48 h; series mostly up to 57.5 µM; also: nearly all actives have a fitted effect of over 55% in size
Results filed as inconclusive are left out. Activity calls are given as the source filed them. Calls follow the shape of the dose curve; as a rule, active = well fitted cell-killing curve with a large enough effect; inconclusive = small, poorly fitted or top-dose-only effect, or effect the other way; inactive = flat fitted curve, though single readings scatter.
Possible outcomes: active, inactive

MOLECULE: O=C(O)CNC(=O)c1c(O)c2ccccc2n(Cc2ccccc2)c1=O
CLASS_LABEL: inactive

MOLECULE: CC(O)CN1CCN(CC(=O)[O-])CCN(CC(=O)[O-])CCN(CC(=O)[O-])CC1.[Gd+3] (stereo not drawn)
CLASS_LABEL: inactive

MOLECULE: Oc1ccc2c3c1O[C@H]1[C@@H](O)C=C[C@H]4[C@@H](C2)NCC[C@@]341
CLASS_LABEL: inactive

MOLECULE: CC(=O)[O][Hg][c]1ccccc1
CLASS_LABEL: active

MOLECULE: O=[N+]([O-])c1cc([N+](=O)[O-])c2ccccc2c1
CLASS_LABEL: inactive

MOLECULE: Nc1ccc(Cl)cc1N
CLASS_LABEL: inactive

MOLECULE: O=C(Oc1ccc([N+](=O)[O-])cc1)N1CCC(C(O)(c2ccc3c(c2)OCO3)c2ccc3c(c2)OCO3)CC1
CLASS_LABEL: inactive

MOLECULE: COC(=O)c1cncn1C(C)c1ccccc1 (stereo not drawn)
CLASS_LABEL: inactive

MOLECULE: Fc1cc(Br)ccc1CBr
CLASS_LABEL: inactive

MOLECULE: CCc1c(C(=O)C(N)=O)c2c(OCC(=O)O)cccc2n1Cc1ccccc1
CLASS_LABEL: inactive

MOLECULE: C=CC(=O)NCNC(=O)C=C
CLASS_LABEL: inactive

MOLECULE: CCCCC(CC)COC(=O)c1ccccc1C(=O)OCC(CC)CCCC (stereo not drawn)
CLASS_LABEL: inactive

MOLECULE: CCCCCCCCc1ccc(O)cc1
CLASS_LABEL: inactive

MOLECULE: CC(C)NCC(O)c1ccc([N+](=O)[O-])cc1 (stereo not drawn)
CLASS_LABEL: inactive

MOLECULE: O=C(NCC1CCOCC1)c1cnc(Nc2ccc(Cl)cc2Cl)nc1C(F)(F)F
CLASS_LABEL: inactive

MOLECULE: CC[N+]1(CCOC(=O)C(O)(c2ccccc2)c2ccccc2)CCCCC1
CLASS_LABEL: inactive

MOLECULE: CCC(=O)O[C@@H]1C=C2CCC3C(CCC4(C)C3CC[C@@H]4OC(=O)CC)C2CC1 (stereo partly drawn)
CLASS_LABEL: inactive

MOLECULE: O=C1C(I)=CC(=C(c2cc(I)c(O)c(I)c2)c2ccccc2C(=O)O)C=C1I
CLASS_LABEL: inactive
